Molecular target: T1, human CCR8 (human, UniProt P51685 1-355)
T1 construct: whole, on cells; also called hCCR8
T1 sequence (P51685 whole entry): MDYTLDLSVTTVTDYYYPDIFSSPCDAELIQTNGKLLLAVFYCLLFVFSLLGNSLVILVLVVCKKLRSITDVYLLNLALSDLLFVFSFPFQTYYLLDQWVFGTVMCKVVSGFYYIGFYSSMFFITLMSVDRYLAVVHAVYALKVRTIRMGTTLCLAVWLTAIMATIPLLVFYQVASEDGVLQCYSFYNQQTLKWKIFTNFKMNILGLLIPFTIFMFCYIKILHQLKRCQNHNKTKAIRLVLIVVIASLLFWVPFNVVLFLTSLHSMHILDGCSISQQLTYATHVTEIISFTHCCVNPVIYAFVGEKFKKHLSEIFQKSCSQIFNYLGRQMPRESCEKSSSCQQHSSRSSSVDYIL
Test: FACS, competition with AF647-human CCL1 on HEK293-human CCR8 cells
REPORTED ENDPOINT: Max Inhibition (%)
Dear colleague, please return just the value in %, with no unit written.

Answered examples (4):
{"BINDER": "149F2C10 (antibody, V domains shown, purified murine hybridoma antibody) VH: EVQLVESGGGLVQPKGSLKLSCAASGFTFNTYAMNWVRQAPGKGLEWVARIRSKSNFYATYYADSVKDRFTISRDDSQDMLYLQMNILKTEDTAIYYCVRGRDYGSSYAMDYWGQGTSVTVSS VL: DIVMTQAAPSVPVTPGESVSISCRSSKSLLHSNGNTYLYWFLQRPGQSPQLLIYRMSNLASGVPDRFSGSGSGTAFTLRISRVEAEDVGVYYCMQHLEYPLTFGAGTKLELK", "UNIT SPEC": "%", "Max Inhibition (%)": 96.4}
{"BINDER": "204A2G12 (antibody, V domains shown, purified murine hybridoma antibody) VH: DVQLQESGPGLVKPSQSLSLTCSVTGYSITSGYYWNWIRQFPGNKLEWMGYISYDGTNNYNPSLKNRISITRDTSKNQFFLKLTSVTTEDTATYYCARQVGLRRAWFAYWGQGTLVTVSA VL: DIQMTQSSSFLSVSLGGRVTITCKASDHINYWLAWYQQKPGNAPRLLISGATSLETGVPSRFSGSGSGKDYTLTITSLQNEDVATYYCHQYWSTPTFGSGTKLEIK", "UNIT SPEC": "%", "Max Inhibition (%)": 87.6}
{"BINDER": "262C2G7 (antibody, V domains shown, purified murine hybridoma antibody) VH: DVHLQESGPGLVKPSQSLSLTCSVTGYSITSGYYWNWIRQFPGNKLEWMGYISYDGSNNYNPSLKNRISITRDISKNQFFLKLNSVTTEDTATYYCARQIGLRRGAMDYWGQGTSVTVSS VL: DIQMTQSSSYLSVSLGGRVTITCKASDHINNWLAWYQQKPGNAPRLLISGSTSLKAGVASRFSGSGSGKDYTLTITSLQTEDVATYYCQQYWGIPFTFGGGTKLEIK", "UNIT SPEC": "%", "Max Inhibition (%)": 86.1}
{"BINDER": "191E12H8 (antibody, V domains shown, purified murine hybridoma antibody) VH: DVQLQESGPGLVKPSQSLSLTCSVTGYSITSGYYWNWIRQFPGNKLEWMGYISYDGSNNYNPSLKNRISITRDISKNQFFLKLNSVTTEDTATYYCARQIGLRRGAMDYWGQGTSVTVSS VL: DIQMTQSSSYLSVSLGGRVTITCKASDHINTWLAWYQQKPGNAPRLLISGSTSLKAGVASRFSGSGSGKDYTLTITSLQTEDVATYYCQQYWGIPFTFGGGTKLEIK", "UNIT SPEC": "%", "Max Inhibition (%)": 85.6}

Field: next binder
Bench note: what Max Inhibition (%) did 164G10D6 (antibody, V domains shown, purified murine hybridoma antibody) VH: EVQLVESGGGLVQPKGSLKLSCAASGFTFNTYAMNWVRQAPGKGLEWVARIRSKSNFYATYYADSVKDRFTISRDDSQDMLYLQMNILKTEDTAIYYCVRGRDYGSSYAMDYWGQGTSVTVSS VL: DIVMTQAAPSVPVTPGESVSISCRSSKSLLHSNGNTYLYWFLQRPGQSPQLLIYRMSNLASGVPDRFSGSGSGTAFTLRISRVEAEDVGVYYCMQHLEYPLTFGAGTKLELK show?
96.6

Values compiled from patent US20250034266A1.
